tested on: Alopecurus myosuroides (ALOMY); test: Post-emergence herbicidal glasshouse test on Alopecurus myosuroides; format: in vivo; settings: post-emergence; 1000 g/h; evaluated after 13 days
attributeMeasured: POST Application ALOMY herbicidal damage (five point scale)

Field: example entries. Status: answers known.
compound=Cn1ncc(-n2ccc(C(F)(F)F)c(-c3ccccc3)c2=O)c(O)c1=O targetdesc="Alopecurus myosuroides (ALOMY)" reading="5 (5=80-100% damage)"
compound=Cn1ncc(-n2ccc(C(F)(F)F)c(-c3ccccc3C(F)(F)F)c2=O)c(O)c1=O targetdesc="Alopecurus myosuroides (ALOMY)" reading="4 (4=60-79% damage)"

Problem: Quote POST Application ALOMY herbicidal damage (five point scale) reported for "Cn1ncc(-c2ccc(C(F)(F)F)cc2Cl)c(O)c1=O" please.
Result: 2 (2=20-39% damage)

Problem: Quote POST Application ALOMY herbicidal damage (five point scale) reported for "Cc1c(-c2cnn(C(C)(C)C)c(=O)c2O)ccc(S(C)(=O)=O)c1C1=NOCC1" please.
Result: 4 (4=60-79% damage)

Problem: Quote POST Application ALOMY herbicidal damage (five point scale) reported for "COCn1ncc(-c2ccc(F)cc2S(C)(=O)=O)c(O)c1=O" please.
Result: 5 (5=80-100% damage)

Problem: Quote POST Application ALOMY herbicidal damage (five point scale) reported for "CCS(=O)(=O)c1nn(C)c(=O)c(O)c1-c1ccc(S(C)(=O)=O)c(C2=NOCC2)c1C" please.
Result: 1 (1=0-19% damage)

Problem: Quote POST Application ALOMY herbicidal damage (five point scale) reported for "O=c1c(O)c(-c2ccc(C(F)(F)F)cc2C(F)(F)F)cnn1C(F)F" please.
Result: 1 (1=0-19% damage)

Problem: Quote POST Application ALOMY herbicidal damage (five point scale) reported for "Cn1ncc(-c2ccc(C(F)(F)F)nc2Oc2ccccc2)c(O)c1=O" please.
Result: 1 (1=0-19% damage)

Problem: Quote POST Application ALOMY herbicidal damage (five point scale) reported for "Cn1ncc(-c2ccc(S(C)(=O)=O)c(F)c2Cl)c(O)c1=O" please.
Result: 1 (1=0-19% damage)

Problem: Quote POST Application ALOMY herbicidal damage (five point scale) reported for "CCOc1nn(C)c(=O)c(O)c1-c1ccc(C(F)(F)F)cc1S(C)(=O)=O" please.
Result: 5 (5=80-100% damage)

Problem: Quote POST Application ALOMY herbicidal damage (five point scale) reported for "Cn1ncc(-n2ccc(C(F)(F)F)c(-c3cccc(C#N)c3)c2=O)c(O)c1=O" please.
Result: 5 (5=80-100% damage)

Problem: Quote POST Application ALOMY herbicidal damage (five point scale) reported for "CC(C)n1ncc(-c2ccc(S(C)(=O)=O)c(C3=NOCC3)c2Cl)c(O)c1=O" please.
Result: 5 (5=80-100% damage)

Problem: Quote POST Application ALOMY herbicidal damage (five point scale) reported for "C=C(C)Cn1cccc(-c2cnn(C)c(=O)c2O)c1=O" please.
Result: 1 (1=0-19% damage)
